B1: RBBP5 (parent)
chain: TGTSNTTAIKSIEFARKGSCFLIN

Variants of: B1
Method description: protein stability index of a GFP-peptide fusion (GPS, HEK-293T) (PSI 1-6); higher = more stable;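 also: lentivirally expressed fusions sorted by FACS into six bins by GFP to DsRed ratio, PSI derived from sequencing read proportions per bin multiplied by bin number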
Measurement context: c terminus: a fixed tail appended
Items are presented alongside their recorded protein stability index.
// no unit string in output, number only

// below: answered variants
Alteration	protein stability index
K17A	2.24
T1E	3.07
N24Y	1.96
C20T	2.56
T1Q	2.79
N5T	2.09
K17D	2.7
G18N	2.18
F14I	2.64
E13D	2.32

Enquiry: Need protein stability index of `I12V` , thanks.
Return: 2.6

Enquiry: Need protein stability index of `S4T` , thanks.
Return: 1.95

Enquiry: Need protein stability index of `T3S` , thanks.
Return: 1.9

Enquiry: Need protein stability index of `E13V` , thanks.
Return: 1.54

Enquiry: Need protein stability index of `C20L` , thanks.
Return: 2.25

Enquiry: Need protein stability index of `T6P` , thanks.
Return: 2.29

Enquiry: Need protein stability index of `I23W` , thanks.
Return: 2.36

Enquiry: Need protein stability index of `G2C` , thanks.
Return: 2.17

Enquiry: Need protein stability index of `F14K` , thanks.
Return: 3.17
